FYI, the data here is from patent US9663551B2.

Below, each entry is listed with its recorded Percentage of larval survival.
System: Macrosiphum euphorbiae larvae
method: Effects on larval survival (artificial medium feeding)
Format: in vivo
setup_conditions: 0.002 mM in artificial medium, after 16 days of treatment

molecule: CC1O[C@@H](OCc2cn(CCCO[C@H]3CC[C@@]4(C)C(=CCC5C6CC7C([C@H](C)C8CC[C@H](C)CN78)[C@@]6(C)CCC54)C3)nn2)C(O)C(O)[C@H]1O (stereo partly shown) [Compound 102]
system: Macrosiphum euphorbiae larvae
Percentage of larval survival [a %]: 84
//
molecule: C[C@H]1CC[C@@H]2[C@@H](C)[C@H]3[C@H](C[C@H]4[C@@H]5CC=C6C[C@@H](O[C@@H]7O[C@H](CO)[C@H](O)[C@H](O[C@@H]8O[C@H](CO)[C@@H](O)[C@H](O)[C@H]8O)[C@H]7O[C@H]7O[C@@H](C)[C@H](O)[C@@H](O)[C@H]7O)CC[C@]6(C)[C@H]5CC[C@]34C)N2C1 [Solanine, solanine, reference compound]
system: Macrosiphum euphorbiae larvae
Percentage of larval survival [a %]: 82
//
molecule: C[C@H]1CCC2[C@@H](C)C3C(CC4C5CC=C6C[C@@H](OCCCn7cc(CO[C@@H]8OC(CO)[C@H](O)C(O)C8O)nn7)CC[C@]6(C)C5CC[C@@]43C)N2C1 (stereo partly shown) [Compound 101]
system: Macrosiphum euphorbiae larvae
Percentage of larval survival [a %]: 62
//
molecule: C[C@H]1CC[C@@H]2[C@@H](C)[C@H]3[C@H](C[C@H]4[C@@H]5CC=C6C[C@@H](O)CC[C@]6(C)[C@H]5CC[C@]34C)N2C1 [Solanidine, solanidine]
system: Macrosiphum euphorbiae larvae
Percentage of larval survival [a %]: 74
